- tested.target: UniProt Q9P1W9
- Sequence (Q9P1W9 whole entry): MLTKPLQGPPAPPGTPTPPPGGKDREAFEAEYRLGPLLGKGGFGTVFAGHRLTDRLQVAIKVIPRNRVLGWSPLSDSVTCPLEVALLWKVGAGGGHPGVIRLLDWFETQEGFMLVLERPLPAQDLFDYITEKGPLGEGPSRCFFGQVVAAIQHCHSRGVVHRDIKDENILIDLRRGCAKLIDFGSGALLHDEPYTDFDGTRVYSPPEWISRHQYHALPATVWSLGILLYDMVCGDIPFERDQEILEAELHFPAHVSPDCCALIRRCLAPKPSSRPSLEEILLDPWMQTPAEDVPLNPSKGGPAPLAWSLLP
- assay.overview: KinaseGlo Pim2 ATP depletion assay
- Format: biochemical
The following molecules are listed with their measured pIC50 values.
In textbook form, pIC50 equals minus log to base ten of the concentration in mol/L.

For orientation, consider the following solved cases.
In [3]: df
Out[3]:
                                   molecule  measured_value
0  C[C@H]1O[C@@H](c2ccncc2NC(=O)c2ccc(F)c(-c3c(F)cccc3F)n2)[C@H](F)C(=O)[C@]1(C)O [Example 72]            7.82
1  C[C@@H]1C[C@H](O)C[C@H](c2ccncc2NC(=O)c2csc(-c3c(F)cccc3F)n2)O1 (stereo in doubt) [Example 125]            5.63
2  Nc1ncc(-c2ccccc2)nc1C(=O)Nc1cnccc1[C@H]1C[C@@H](O)[C@@]2(O)CCCC[C@H]2O1 [Example 173]            7.80
3  O=C(Nc1cnccc1[C@H]1C[C@@H](O)CC2(CC2)O1)c1csc(-c2c(F)cccc2F)n1 [Example 61]            6.22
4  CC[C@]1(O)[C@H](C)O[C@H](c2ccncc2NC(=O)c2ccc(F)c(-c3c(F)cccc3F)n2)C[C@@H]1O (stereo in doubt) [Example 76]            8.70

Then this molecule:
Prompt line: Record request: pIC50 value, item C[C@@H]1C[C@H](O)C[C@H](c2ccncc2NC(=O)c2ccc(F)c(-c3c(F)cccc3F)n2)O1 (stereo in doubt) [Example 126]
Response line: 6.67
